test: xn = mol fraction of the nth substance listed, in the solute-free solvent; details: 288.15 K; x2 = 0.5
Outcome label depends on solubility (g/100 g solution) relative to 2: at/above gives met, below gives not met.

INSERT INTO results (molecule, group_label) VALUES
  ('Cc1ncc(CO)c(CO)c1O.Cl + O + CCCO', 'met'),
  ('Cc1ncc(CO)c(CO)c1O.Cl + O + CC(C)O', 'met'),
  ('Cc1c(Br)c(=O)n(C2CCCC2)c2nc(Cl)ncc12 + CCOC(C)=O + CCO', 'not met'),
  ('COC(=O)C(N)CS.Cl (configuration not stated) + CCO + ClCCl', 'met'),
  ('Cc1c(Br)c(=O)n(C2CCCC2)c2nc(Cl)ncc12 + CC1=CC(=O)CC(C)(C)C1 + CC(C)O', 'not met'),
  ('Cc1ncc(CO)c(CO)c1O.Cl + O + CC#N', 'met'),
  ('Cc1c(Br)c(=O)n(C2CCCC2)c2nc(Cl)ncc12 + C1CCOC1 + CCO', 'met');

Measured values drawn from the CheMixHub drug solubility set for this set.
